PROTOCOL_DETAILS: Kinetic solubility in SGF
Format: physicochemical
CONDITION_CONTEXT: simulated gastric fluid, thermodynamic from solid, equilibrated 24 h, UPLC, read-out: 24 hours Concentration

| COMPOUND | solubility thermodynamic at 24 h / µg/mL |
| --- | --- |
| CC(C)c1cc(Oc2c(Cl)cc(-n3nc(C#N)c(=O)[nH]c3=O)cc2Cl)n[nH]c1=O [Form CSIV] | 5.5 |
